- Test system: Zea mays (ZEAMX)
- assayInfo: Post-emergence crop plant compatibility, greenhouse pot test
- Format: in vivo
- studyConditions: 5 g/ha, vs untreated controls
metricName: Post-emergence action against ZEAMX (crop plant compatibility) (%)

{"compound": "Cn1c(C(F)(F)F)cc(=O)n(-c2cc(Sc3ccccc3OCC(=O)OCC3CCOC3)c(Cl)cc2F)c1=O (racemic)", "studySystem": "Zea mays (ZEAMX)", "experimentalValue": 20}
{"compound": "Cn1c(C(F)(F)F)cc(=O)n(-c2cc(Oc3ccccc3OCC(=O)OCC[N+](=O)[O-])c([N+](=O)[O-])cc2F)c1=O", "studySystem": "Zea mays (ZEAMX)", "experimentalValue": 20}
{"compound": "COCCCOC(=O)COc1ccccc1Sc1cc(-n2c(=O)cc(C(F)(F)F)n(C)c2=O)c(F)cc1Cl", "studySystem": "Zea mays (ZEAMX)", "experimentalValue": 20}
{"compound": "COCCOC(=O)C(C)Oc1ccccc1Sc1cc(-n2c(=O)cc(C(F)(F)F)n(C)c2=O)c(F)cc1Cl (racemic)", "studySystem": "Zea mays (ZEAMX)", "experimentalValue": 10}

A. Cn1c(C(F)(F)F)cc(=O)n(-c2cc(Oc3ccccc3OCC(=O)OCc3ccccn3)c(C#N)cc2F)c1=O
B. COCCOCCOC(=O)COc1ccccc1Oc1cc(-n2c(=O)cc(C(F)(F)F)n(C)c2=O)c(F)cc1[N+](=O)[O-]
Could you determine which record has the numerically smaller Post-emergence action against ZEAMX (crop plant compatibility)? Candidates: A and B Reply with the label of the item you choose.
A

Data origin, for the record: patent US20240025862A1
